Target: human LPA1 (Homo sapiens)
Construct: expressed in transfected cells; host or cells: Chinese hamster ovary (CHO) cells
Sequence (Q92633 whole entry): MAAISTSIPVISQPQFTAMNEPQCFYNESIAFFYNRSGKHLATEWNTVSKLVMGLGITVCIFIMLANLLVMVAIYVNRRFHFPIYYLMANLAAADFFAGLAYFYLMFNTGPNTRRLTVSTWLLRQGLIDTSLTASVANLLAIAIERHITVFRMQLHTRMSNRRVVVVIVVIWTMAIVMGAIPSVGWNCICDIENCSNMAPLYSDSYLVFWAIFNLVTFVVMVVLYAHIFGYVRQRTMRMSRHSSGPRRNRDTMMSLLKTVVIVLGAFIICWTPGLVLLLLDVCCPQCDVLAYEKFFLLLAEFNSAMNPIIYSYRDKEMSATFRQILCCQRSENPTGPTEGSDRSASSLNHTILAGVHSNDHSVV
Assay: LPA1 functional antagonist assay (LPA-induced calcium flux in CHO cells overexpressing human LPA1)
Assay type: cell-based
Details: read-out: hLPA1 IC50
quantity name: IC50 (nM)

The examples below pair each entry with its known result.
CCn1nnc(NCc2c(-c3ccc(O[C@H]4CCC[C@H](C(=O)O)C4)c(C)n3)nnn2C)n1; 2110
Cc1nc(-c2nnn(C)c2Cn2nnc(NCC3CC3)n2)ccc1O[C@H]1CCC[C@H](C(=O)O)C1; 428
Cc1nc(-c2nnn(C)c2Cn2nnc(N(C)Cc3ccccc3)n2)ccc1O[C@H]1CCC[C@H](C(=O)O)C1; 273

[1] CCCCCc1cn(Cc2c(-c3ccc(O[C@H]4CCC[C@H](C(=O)O)C4)c(CC)n3)nnn2C)nn1
[2] Cc1nc(-c2nnn(C)c2CNc2nnnn2Cc2ccccc2)ccc1O[C@H]1CCC[C@H](C(=O)O)C1
[3] CCCc1nsc(NCc2c(-c3ccc(O[C@H]4CCC[C@H](C(=O)O)C4)c(CC)n3)nnn2C)n1
[4] Cc1nc(-c2nnn(C)c2Cc2nnn(CC(C)C)n2)ccc1O[C@H]1CCC[C@H](C(=O)O)C1
[5] Cc1nc(-c2nnn(C)c2Cc2nnn(Cc3ccccc3)n2)ccc1O[C@H]1CCC[C@H](C(=O)O)C1
Ranking field: IC50; order: falling. Lab note: record answer as labels in requested order.
1, 2, 4, 3, 5
(1: 585 nM, 2: 375 nM, 4: 136 nM, 3: 73 nM, 5: 47 nM)

----------
Target: human LPA1 (Homo sapiens)
Construct: expressed in transfected cells; host or cells: Chinese hamster ovary (CHO) cells
Test: LPA1 functional antagonist assay (LPA-induced calcium flux in CHO cells overexpressing human LPA1)
Type: cell-based
Settings: inhibition of calcium flux induced by 10 nM LPA, CHO cells overexpressing human LPA1; read-out: hLPA1 IC50
quantity name: IC50 (nM)

CC(C)Cc1nnnn1Cc1c(-c2ccc(O[C@H]3CCC[C@H](C(=O)O)C3)cn2)nnn1C; 237
Cc1nc(-c2nnn(C)c2Cn2nnc(S(C)(=O)=O)n2)ccc1O[C@H]1CCC[C@H](C(=O)O)C1; 1100

[1] Cc1nc(-c2nnn(C)c2Cc2noc(C(C)C3CC3)n2)ccc1O[C@H]1CCC[C@H](C(=O)O)C1 (mixture of isomers)
[2] Cc1nc(-c2nnn(C)c2Nc2nc(-c3ccccc3)no2)ccc1O[C@H]1CCC[C@H](C(=O)O)C1
# argmax over IC50 for candidates 1 and 2 Use the label to indicate which entry you chose.
2

[P] Cc1nc(-c2nnn(C)c2CNc2noc(CC(C)C)n2)ccc1O[C@H]1CCC[C@H](C(=O)O)C1
[Q] Cc1nc(-c2nnn(C)c2CNc2ncn(CC3CC3)n2)ccc1O[C@H]1CCC[C@H](C(=O)O)C1
Problem: Given the entries P and Q , determine which has the lower reported IC50. Use the label to indicate which entry you chose.
P
(P: 33 nM, Q: 179 nM)

[a] CCCn1ncc(NCc2c(-c3ccc(O[C@H]4CCC[C@H](C(=O)O)C4)c(C)n3)nnn2C)n1
[b] Cc1nc(-c2nnn(C)c2CNc2cnn(CC(C)C)n2)ccc1O[C@H]1CCC[C@H](C(=O)O)C1
[c] Cc1nc(-c2nnn(C)c2CNc2noc(CCC3CCC3)n2)ccc1O[C@H]1CCC[C@H](C(=O)O)C1
[d] Cc1nc(-c2nnn(C)c2Cn2nnnc2N2CCCC2)ccc1O[C@H]1CCC[C@H](C(=O)O)C1
// smallest IC50 at index 0, largest at the end Lab note: record answer as labels in requested order.
c, b, a, d

The values you see were collected from patent US11319315B2.
